- System: oilseed rape
- ASSAY PROCEDURE: Test C preemergence
- Format: in vivo, Brassica napus
- EXPERIMENTAL CONTEXT: Oilseed Rape, preemergence, 250 g ai/ha
PARAMETER: Plant response rating (scale of 0 to 100 where 0 is no effect and 100 is complete control)
The reply should be a number, written without any unit.

INSERT INTO results (structure_string, value_measured) VALUES
  ('FC(F)(F)COc1nc(-c2ccccc2)nn1Cc1ccnc(C(F)(F)F)c1', 98);

Now for a further molecule.
The molecule Fc1ccc(-c2nc(OCC(F)(F)F)n(Cc3ccnc(C(F)(F)F)c3)n2)cc1 showed Plant response rating (scale of 0 to 100 where 0 is no effect and 100 is complete control) equal to 100

----------
- Test system: barnyardgrass
- ASSAY PROCEDURE: Test A postemergence
- Type: in vivo, Echinochloa crus-galli
- EXPERIMENTAL CONTEXT: 31 g ai/ha, 0 to 100 scale (0 no effect, 100 complete control), approx. 10 d
PARAMETER: Plant response rating, Barnyardgrass
The reply should be a number, written without any unit.

INSERT INTO assay_data (molecule, parameter, value_measured) VALUES
  ('Cc1nc(-c2ccc(OC(F)(F)F)cc2)nn1Cc1ccnc(C(F)(F)F)c1 [Compound 37]', 'Plant response rating, Barnyardgrass', 0),
  ('CCOc1nc(-c2ccc(Cl)cc2)nn1Cc1ccnc(C(F)(F)F)c1 [Compound 26]', 'Plant response rating, Barnyardgrass', 40),
  ('Cc1nc(-c2ccc(Br)cc2)nn1Cc1ccnc(C(F)(F)F)c1 [Compound 36]', 'Plant response rating, Barnyardgrass', 0),
  ('CCCOc1nc(-c2ccc(C(F)(F)F)cc2)nn1Cc1ccnc(C(F)(F)F)c1 [Compound 41]', 'Plant response rating, Barnyardgrass', 30);

The molecule Cc1nc(-c2ccc(F)cc2)nn1Cc1ccnc(C(F)(F)F)c1 [Compound 38] showed Plant response rating, Barnyardgrass equal to 0

----------
Quick reference for Plant response rating (scale of 0 to 100 where 0 is no effect and 100 is complete control) among some molecules
- Test system: foxtail, giant
- ASSAY PROCEDURE: Test C preemergence
- Type: in vivo, Setaria faberii
- EXPERIMENTAL CONTEXT: Foxtail, Giant, preemergence, 125 g ai/ha
The reply should be a number, written without any unit.

The molecule CCCc1nc(-c2ccc(F)cc2)nn1Cc1ccnc(C(F)(F)F)c1 showed Plant response rating (scale of 0 to 100 where 0 is no effect and 100 is complete control) equal to 100

The molecule CCOc1nc(-c2ccccc2)nn1Cc1ccnc(C(F)(F)F)c1 showed Plant response rating (scale of 0 to 100 where 0 is no effect and 100 is complete control) equal to 100

The molecule Fc1ccc(-c2nc(OCC(F)(F)F)n(Cc3ccnc(C(F)(F)F)c3)n2)cc1 showed Plant response rating (scale of 0 to 100 where 0 is no effect and 100 is complete control) equal to 100

The molecule COc1nc(-c2ccc(F)cc2)nn1Cc1ccnc(C(F)(F)F)c1 showed Plant response rating (scale of 0 to 100 where 0 is no effect and 100 is complete control) equal to 100

The molecule FC(F)(F)COc1nc(-c2ccccc2)nn1Cc1ccnc(C(F)(F)F)c1 showed Plant response rating (scale of 0 to 100 where 0 is no effect and 100 is complete control) equal to 98
